So I've got a bunch of compounds here, and I need their fold change (FC) values.
Tested system: Tyrosine-protein kinase Lyn (Homo sapiens) (UniProt P07948)
Sequence (P07948 2-512 limits assumed): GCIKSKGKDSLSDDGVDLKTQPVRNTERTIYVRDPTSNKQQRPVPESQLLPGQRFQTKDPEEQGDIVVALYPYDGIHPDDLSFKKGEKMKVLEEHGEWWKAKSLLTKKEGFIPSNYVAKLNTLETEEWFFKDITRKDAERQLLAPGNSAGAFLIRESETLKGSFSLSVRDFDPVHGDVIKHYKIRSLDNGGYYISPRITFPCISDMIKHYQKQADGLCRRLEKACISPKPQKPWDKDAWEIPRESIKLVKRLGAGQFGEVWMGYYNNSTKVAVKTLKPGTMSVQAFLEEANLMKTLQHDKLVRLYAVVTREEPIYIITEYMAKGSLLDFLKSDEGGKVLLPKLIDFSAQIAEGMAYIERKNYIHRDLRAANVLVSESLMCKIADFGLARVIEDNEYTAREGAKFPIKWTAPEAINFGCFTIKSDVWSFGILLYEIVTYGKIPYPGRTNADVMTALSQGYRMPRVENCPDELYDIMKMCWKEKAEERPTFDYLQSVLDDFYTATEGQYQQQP
Assay remarks: Binding affinity to Lyn assessed as increase of fluorescence after 60 mins relative to control
Starred links: 1 amine or outer side, 2 acyl side, 3 side chain; linkers in the order of their positions; H or OH if unused. Non-standard residues stand in square brackets, D forms with d. Residues, ends and D or L forms follow the SMILES beside them. X1 = O=C([C@H](Cc1cn(-c2ccc3ccc4cccc5ccc2c3c45)nn1)N[*:1])[*:2]
One number for each entry.

Example cases with answers are listed next.
Compound: CC[C@H](C)[C@H](NC(=O)[C@H](CCC(=O)O)NC(=O)[C@H](CCC(=O)O)NC(=O)[C@H](CCC(=O)O)NC(=O)[C@H](C)N)C(=O)N[C@@H](Cc1ccc(O)cc1)C(=O)NCC(=O)N[C@@H](CCC(=O)O)C(=O)N[C@@H](Cc1cn(-c2ccc3ccc4cccc5ccc2c3c45)nn1)C(=O)N[C@@H](CCC(=O)O)C(=O)N[C@@H](C)C(=O)N[C@@H](CCCCN)C(=O)N[C@@H](CCCCN)C(=O)N[C@@H](CCCCN)C(=O)N[C@@H](CCCCN)C(N)=O (H-AEEEIYGE[X1]EAKKKK-NH2)
Measurement label: fold change (FC)
Data value: 4
//
Compound: CC[C@H](C)[C@H](NC(=O)[C@H](CCC(=O)O)NC(=O)[C@H](CCC(=O)O)NC(=O)[C@H](CCC(=O)O)NC(=O)[C@H](C)N)C(=O)N[C@@H](Cc1ccc(O)cc1)C(=O)NCC(=O)N[C@@H](CCC(=O)O)C(=O)N[C@@H](Cc1cn(CCNS(=O)(=O)c2cccc3c(N(C)C)cccc23)nn1)C(=O)N[C@@H](CCC(=O)O)C(=O)N[C@@H](C)C(=O)N[C@@H](CCCCN)C(=O)N[C@@H](CCCCN)C(=O)N[C@@H](CCCCN)C(=O)N[C@@H](CCCCN)C(N)=O
Measurement label: fold change (FC)
Data value: 0

Turning now to a further record.
QUERY: // lookup fold change (FC) for `CC[C@H](C)[C@H](NC(=O)[C@H](CCC(=O)O)NC(=O)[C@H](CCC(=O)O)NC(=O)[C@H](CCC(=O)O)NC(=O)[C@H](C)N)C(=O)N[C@@H](Cc1ccc(O)cc1)C(=O)NCC(=O)N[C@@H](CCC(=O)O)C(=O)N[C@@H](Cc1cn(Cc2cc(=O)oc3cc(NC(C)=O)ccc23)nn1)C(=O)N[C@@H](CCC(=O)O)C(=O)N[C@@H](C)C(=O)N[C@@H](CCCCN)C(=O)N[C@@H](CCCCN)C(=O)N[C@@H](CCCCN)C(=O)N[C@@H](CCCCN)C(N)=O`
RESULT: 1.3

Origin of measurements: ChEMBL document CHEMBL1641533
